# System: MDA-MB-435
Pick from Y = active, N = inactive when you respond.

The following molecules have reported results that may help.
Cc1cccc2nc3cccc(C(=O)NCCNCCNCCNC(=O)c4cccc5nc6cccc(C)c6nc45)c3nc12
Y
O=[N+]([O-])c1ccc(Sc2nc(Cl)nc(NC3CCCC3)n2)cc1
N
Nc1ccccc1NC(=O)c1ccc(CN2CCC/C(=C\c3ccccn3)C2=O)cc1
Y
COc1cccc(-n2cc(-c3nc(Nc4cc(C)[nH]n4)c4ccccc4n3)nn2)c1
N
CCCCCc1cc[n+](CC(=O)c2ccc([N+](=O)[O-])cc2)cc1
N

Qu. Status in this test for O=c1c2cccc(F)c2sc2c(N3CCNCC3)nc3ccccc3c12 ?
Ans. N

Qu. Thanks! And c1ccc(Nc2nc(-c3ccccn3)cs2)nc1 ?
Ans. N

###

# Test system: HOP-92 NSCLC
# PROTOCOL DESCRIPTION: NCI tumour cell line growth inhibition, 48 h
Quick reference for GI50 among some molecules

# example entries with known answers
Fc1ccc(-c2nn3c(-c4cc(C(F)(F)F)cc(C(F)(F)F)c4)nnc3s2)cc1
1.22 µM
O=C(O)C1C2C=CC(C2)C1C(=O)O (stereo unspecified)
> 100 µM
COC(=O)C[CH2][Ge]([CH3])([CH3])[S]c1ccccc1
17.7 µM
CO[C@]12C=C/C(=C(/C(=O)OCc3cccnc3)C(=O)CCCCCCCC[C@@]3(OC)C=C/C(=C(/C(=O)OCc4cccnc4)C(=O)CCCCCCCC1)O3)O2
1.86 µM
CCCC[n+]1c(/C=C\c2c(OC)cc(OC)cc2OC)ccc2ccccc21
0.502 µM

Qu. Form field: reported GI50 of c1ccc(Nc2nc(-c3ccccn3)cs2)nc1
Ans. 2.49 µM

Qu. Now this one: CC(=O)c1ccc(Nc2nc(Nc3ccc(F)cc3)nc(Nc3ccc(F)cc3)n2)cc1
Ans. 5.64 µM

Qu. Here is the next molecule: O=c1c2c(c3ccccc3n1-c1ccccc1)NC(=S)NC2c1ccc(Cl)cc1 (stereo unspecified)
Ans. 2.38 µM

Qu. Check CCCCCCCCCCCCCCCC(=O)N[C@H](/C=C/[C@H](O)CCCCCCCCCCCCC)CO too.
Ans. > 100 µM

Qu. For CCN(Cc1ccccc1Cl)c1ccc(CO)c(Cl)c1 then?
Ans. 0.932 µM

Qu. CC(C)(CCN=C(N)Nc1ccccn1)c1ccc(C(F)(F)F)cc1 , same question.
Ans. 13.3 µM

###

# Test system: UO-31 renal
# PROTOCOL DESCRIPTION: NCI tumour cell line growth inhibition, 48 h; in the data active = GI50 below about 0.43 µM; inactive = the rest
Answer with one of the outcomes given here: 1 = active, -1 = inactive

C=C1CCC2C3(C)COC(c4c(OC)cccc4OC)OC3CCC2(C)C1C/C=C1/C(=O)OCC1O (centres undefined)
-1

Qu. Recorded call for c1ccc(Nc2nc(-c3ccccn3)cs2)nc1 ?
Ans. 1

Qu. Moving on to the next compound: COc1cccc(-n2cc(-c3nc(Nc4cc(C)[nH]n4)c4ccccc4n3)nn2)c1
Ans. 1

Qu. For O=C1CCCCC=C1C[N+](=O)[O-] then?
Ans. -1

Qu. Subsequent entry: Cc1[nH]c(C(=O)Nc2ccccc2OC2CCNCC2)c(Cl)c1Cl
Ans. -1

Qu. // same read-out, input: CC(=O)c1ccc(Nc2nc(Nc3ccc(F)cc3)nc(Nc3ccc(F)cc3)n2)cc1
Ans. -1

Qu. Now the compound NC1CCC(Nc2nc(NCc3cc(Cl)ccc3O)c3ncn(C4CCCC4)c3n2)CC1 (centres undefined)
Ans. 1

Qu. Same thing, different compound: CCCCCCCCCCCCCCCC(=O)N[C@H](/C=C/[C@H](O)CCCCCCCCCCCCC)CO
Ans. -1

Qu. Another compound to check: CC(=O)[CH-]C(=O)c1ccccc1.CC(=O)[CH-]C(=O)c1ccccc1.CC[C@H](/C=C/C(C)[C@H]1CCC2[C@@H]3CC=C4C[C@@H]([O-])CC[C@]4(C)C3CC[C@@]21C)C(C)C.CC[O-].[Ti+4] (some centres undefined)
Ans. -1

###

# System: NCI/ADR-RES ovarian
# PROTOCOL DESCRIPTION: NCI tumour cell line growth inhibition, 48 h; in the data active = GI50 below about 0.43 µM; inactive = the rest
Assign a class; possible classes are 1 (yes) = active, 0 (no) = inactive

NCCCn1c2c(c3ccc([N+](=O)[O-])cc3c1=O)C(=O)c1cc(-c3ccccc3)ccc1-2
0 (no)
Fc1ccc(-c2nn3c(-c4cc(C(F)(F)F)cc(C(F)(F)F)c4)nnc3s2)cc1
0 (no)
CC1=C(C(=O)Nc2ccc3[nH]ncc3c2)C(c2ccc(Cl)c(Cl)c2)CC(=O)N1 (stereo not drawn)
0 (no)
NCCCCCCCCCCCn1c2c(c3ccccc3c1=O)C(=O)c1ccccc1-2
0 (no)

Qu. Check the results log: what was the call for O=[N+]([O-])c1ccc(Sc2nc(Cl)nc(NC3CCCC3)n2)cc1 ?
Ans. 0 (no)

###

Listed compounds paired with reported TGI
# Test system: MOLT-4 leukemia
# PROTOCOL DESCRIPTION: NCI tumour cell line growth inhibition, 48 h

Some compounds with known TGI results, for comparison:
COc1cc(/C=C/c2nc(N)nnc2C)cc(OC)c1OC
> 90.7 µM
Cc1ccc(C2N=C(N)NC3=C2CCOc2c3ccc3ccccc23)cc1 (stereo unspecified)
> 74.8 µM
COc1ccc(CNC(C)C(=O)O)cc1 (stereo unspecified)
> 100 µM
CNc1cc2nc3cc(NC)c(C)cc3cc2cc1C
> 100 µM

Qu. Look up TGI: COC1=CC(=O)c2c(cc(COP(=O)(OCC3OC(n4cc(F)c(=O)[nH]c4=O)CC3O)N(C)CCCCCl)n2C)C1=O (stereo unspecified)
Ans. > 54 µM

Qu. // same read-out, input: CSc1c(C(=O)Nc2ccc(C)cc2)c(N)n(N)c(=O)c1C#N
Ans. > 100 µM

Qu. And for c1ccc(-c2nnc(SCc3c[nH]c4ccccc34)n2-c2ccccc2)cc1 ?
Ans. > 100 µM

Qu. Another: COc1ccc(P2(=S)SP(=S)(c3ccc(Cl)cc3)S2)cc1 (stereo unspecified)
Ans. > 100 µM

Qu. Input Fc1ccc(-c2nn3c(-c4cc(C(F)(F)F)cc(C(F)(F)F)c4)nnc3s2)cc1
Ans. > 50 µM

Qu. Subsequent entry: CC1(c2cccc(N)c2)C2C(=O)NC(=O)C1C(=O)NC2=O (stereo unspecified)
Ans. 47.6 µM

Qu. Cool, now O=S(=O)(c1ccc(Br)cc1)N1CCN(S(=O)(=O)c2ccc(Br)cc2)CC1
Ans. 26.7 µM

###

# System: SK-MEL-5 melanoma
# PROTOCOL DESCRIPTION: NCI tumour cell line growth inhibition, 48 h; in the data active = GI50 below about 0.43 µM; inactive = the rest
// classify into YES = active, NO = inactive

Study these solved cases before continuing.
COc1ccc(-c2nc(Nc3ccc(-c4nc5ccccc5[nH]4)cc3)nc(N3CCOCC3)n2)cc1
NO
CCCCCc1cc[n+](CC(=O)c2ccc([N+](=O)[O-])cc2)cc1
NO
Clc1cc2c(nn1)Nc1ccccc1S2
NO

Now look at this entry.
Qu. Dear all, I need the recorded test outcome for CC[C@@H](C(=O)[C@H](C)[C@H](O)[C@@H](C)[C@H]1O[C@H]([C@@H](CC)C(=O)O)CC[C@H]1C)C1O[C@]2(C=C[C@@H](O)[C@]3(CC[C@@](C)([C@H]4CC[C@](O)(CC)[C@H](C)O4)O3)O2)[C@H](C)C[C@@H]1C (some centres undefined) , thank you.
Ans. YES

###

Measured GI50 accompanies every entry in the list below.
# Tested on: SF-295 CNS
# PROTOCOL DESCRIPTION: NCI tumour cell line growth inhibition, 48 h

Qu. Short answer please: GI50, SF-295 CNS, entry CN(C)CCC=C1c2ccccc2C(C)(C)c2ccccc21
Ans. 3920 nM

Qu. Check Clc1nc(Cl)c2c3c(sc2n1)CCCC3 too.
Ans. > 100000 nM

Qu. Same question for CNc1cc2nc3cc(NC)c(C)cc3cc2cc1C please.
Ans. 1410 nM

Qu. Another compound to look at: O=c1c2c(c3ccccc3n1-c1ccccc1)NC(=S)NC2c1ccc(Cl)cc1 (centres undefined)
Ans. 1340 nM

###

# Tested on: HCT-116 colon
# PROTOCOL DESCRIPTION: NCI tumour cell line growth inhibition, 48 h
# TGI annotations

Before answering, review these 6 worked examples.
C=C1C(=O)O[C@@H]2[C@H]1CCC(C)=C1C=CC(=O)[C@]12C
26.7 µM
CN1C(=O)C(C(N)=O)C2CC1(C)Oc1ccccc12 (configuration not stated)
> 100 µM
Cc1ccc(NCC(=O)N2CC(=O)Nc3ccccc32)cc1
> 100 µM
O=c1c2ccccc2nc2n1C(c1ccc([N+](=O)[O-])cc1)C2(c1ccccc1)c1ccccc1 (configuration not stated)
> 100 µM
O=C(Nc1c(C(=O)NC2CCCCC2)[nH]c(=O)[nH]c1=O)c1ccc(Cl)cc1
> 100 µM
COc1ccc(P2(=S)SP(=S)(c3ccc(Cl)cc3)S2)cc1 (configuration not stated)
> 100 µM

Qu. Which TGI value is on record for NC1CCC(Nc2nc(NCc3cc(Cl)ccc3O)c3ncn(C4CCCC4)c3n2)CC1 (configuration not stated) ?
Ans. 0.66 µM
